The following molecules are listed with their measured BuChEI (%) 1 μM values.
# Measured on: BuChE (Homo sapiens, UniProt P06276)
# Sequence (P06276 29-602): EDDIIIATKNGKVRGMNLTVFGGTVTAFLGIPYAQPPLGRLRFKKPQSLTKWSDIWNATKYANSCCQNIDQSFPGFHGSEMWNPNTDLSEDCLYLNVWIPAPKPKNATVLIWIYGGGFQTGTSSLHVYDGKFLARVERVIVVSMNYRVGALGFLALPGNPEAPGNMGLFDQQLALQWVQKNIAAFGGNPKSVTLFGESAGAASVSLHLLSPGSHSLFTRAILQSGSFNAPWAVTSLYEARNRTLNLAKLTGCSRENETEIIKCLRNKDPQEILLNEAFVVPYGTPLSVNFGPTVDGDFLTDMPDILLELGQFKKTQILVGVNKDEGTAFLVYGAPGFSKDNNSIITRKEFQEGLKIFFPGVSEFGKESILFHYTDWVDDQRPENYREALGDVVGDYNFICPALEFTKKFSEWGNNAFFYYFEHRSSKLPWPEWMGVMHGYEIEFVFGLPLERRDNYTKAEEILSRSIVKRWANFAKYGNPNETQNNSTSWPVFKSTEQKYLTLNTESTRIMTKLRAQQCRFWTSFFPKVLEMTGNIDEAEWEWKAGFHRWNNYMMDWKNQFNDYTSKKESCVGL
# Test name: In vitro screening assay, BuChE inhibition
# Type: biochemical
# Protocol conditions: 1 μM

>  <Molecule>
C[C@@H](c1cccc(OC(=O)N(C)CCCN2c3ccccc3CCc3ccccc32)c1)N(C)C

>  <BuChEI (%) 1 μM>
16

$$$$
>  <Molecule>
C[C@@H](c1cccc(OC(=O)N(C)CCCC2c3ccccc3C=Cc3ccccc32)c1)N(C)C

>  <BuChEI (%) 1 μM>
16

$$$$
>  <Molecule>
C[C@@H](c1cccc(OC(=O)N[C@H]2C[C@@H]2c2ccccc2)c1)N(C)C (stereo in doubt)

>  <BuChEI (%) 1 μM>
23

$$$$
